- target_entity: NaV1.5 (Homo sapiens, UniProt Q14524)
- Sequence (Q14524 whole entry): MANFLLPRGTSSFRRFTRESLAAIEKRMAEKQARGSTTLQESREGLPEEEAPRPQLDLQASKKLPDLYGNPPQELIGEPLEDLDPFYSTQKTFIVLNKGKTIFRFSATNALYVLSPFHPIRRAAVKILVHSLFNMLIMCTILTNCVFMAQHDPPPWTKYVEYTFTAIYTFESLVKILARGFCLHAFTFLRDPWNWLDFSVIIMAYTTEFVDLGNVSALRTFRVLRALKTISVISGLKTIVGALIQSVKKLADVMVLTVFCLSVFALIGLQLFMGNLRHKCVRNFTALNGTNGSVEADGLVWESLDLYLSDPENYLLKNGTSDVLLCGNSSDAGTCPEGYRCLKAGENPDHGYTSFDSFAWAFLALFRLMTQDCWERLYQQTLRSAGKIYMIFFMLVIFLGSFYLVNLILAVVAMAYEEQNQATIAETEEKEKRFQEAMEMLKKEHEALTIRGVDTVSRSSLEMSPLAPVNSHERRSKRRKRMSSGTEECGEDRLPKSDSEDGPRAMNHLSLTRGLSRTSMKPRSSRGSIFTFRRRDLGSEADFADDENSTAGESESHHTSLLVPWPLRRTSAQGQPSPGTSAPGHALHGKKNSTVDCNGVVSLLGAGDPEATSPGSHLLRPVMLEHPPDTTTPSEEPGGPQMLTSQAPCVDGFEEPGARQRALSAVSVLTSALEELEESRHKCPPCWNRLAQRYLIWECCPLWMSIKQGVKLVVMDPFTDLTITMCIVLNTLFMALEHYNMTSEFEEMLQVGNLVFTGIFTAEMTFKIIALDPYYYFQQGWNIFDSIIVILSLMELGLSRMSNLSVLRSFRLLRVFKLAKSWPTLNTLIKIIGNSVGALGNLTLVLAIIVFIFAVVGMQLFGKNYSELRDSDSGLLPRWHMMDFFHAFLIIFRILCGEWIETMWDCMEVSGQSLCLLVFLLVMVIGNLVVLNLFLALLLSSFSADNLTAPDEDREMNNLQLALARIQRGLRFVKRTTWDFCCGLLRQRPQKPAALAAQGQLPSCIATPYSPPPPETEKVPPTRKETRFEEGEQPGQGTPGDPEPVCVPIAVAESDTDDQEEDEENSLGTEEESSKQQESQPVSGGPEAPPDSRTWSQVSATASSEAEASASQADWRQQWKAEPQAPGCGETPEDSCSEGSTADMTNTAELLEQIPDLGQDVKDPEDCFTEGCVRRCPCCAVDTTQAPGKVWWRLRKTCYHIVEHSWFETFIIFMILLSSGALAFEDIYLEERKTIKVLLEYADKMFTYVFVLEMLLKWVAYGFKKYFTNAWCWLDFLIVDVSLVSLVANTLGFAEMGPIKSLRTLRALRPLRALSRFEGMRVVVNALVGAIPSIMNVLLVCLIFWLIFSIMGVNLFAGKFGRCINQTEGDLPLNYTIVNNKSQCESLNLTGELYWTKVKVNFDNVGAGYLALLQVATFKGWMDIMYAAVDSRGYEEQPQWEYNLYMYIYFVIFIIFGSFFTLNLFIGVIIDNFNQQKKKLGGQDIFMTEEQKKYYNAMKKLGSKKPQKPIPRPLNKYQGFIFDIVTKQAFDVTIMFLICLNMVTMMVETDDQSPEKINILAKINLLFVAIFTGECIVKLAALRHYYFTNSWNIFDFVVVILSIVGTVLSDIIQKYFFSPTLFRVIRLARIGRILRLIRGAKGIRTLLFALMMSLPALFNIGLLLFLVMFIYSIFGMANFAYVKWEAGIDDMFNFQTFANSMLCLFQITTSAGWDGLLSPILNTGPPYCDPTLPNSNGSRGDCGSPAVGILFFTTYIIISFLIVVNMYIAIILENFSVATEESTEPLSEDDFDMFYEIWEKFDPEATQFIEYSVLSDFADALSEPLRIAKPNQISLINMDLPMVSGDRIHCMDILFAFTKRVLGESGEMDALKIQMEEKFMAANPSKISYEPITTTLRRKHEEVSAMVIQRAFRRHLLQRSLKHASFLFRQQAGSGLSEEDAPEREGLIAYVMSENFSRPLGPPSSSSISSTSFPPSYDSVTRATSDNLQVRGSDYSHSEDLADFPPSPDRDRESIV
- test: Qube automated patch-clamp assay, inhibition of sodium current
- Assay type: cell-based
- measurement_conditions: holding potential −80 mV; max concentration tested 33750 nM
Consider the following compounds and their measured IC50 readings.
quantity: IC50

compound	target_entity	value_reported
C[C@@H](N)C(CNc1cc(F)c(S(=O)(=O)Nc2ncns2)cc1Cl)CN1CCCC1 (stereo partly drawn)	NaV1.5 (Homo sapiens, UniProt Q14524)	> 33800 nM
C[C@@H](N)[C@H](CNc1cc(F)c(S(=O)(=O)Nc2ncns2)cc1F)CC(N)CC(F)(F)F (single isomer, unassigned)	NaV1.5 (Homo sapiens, UniProt Q14524)	> 33800 nM
C[C@@H](N)[C@H](CNc1ccc(S(=O)(=O)Nc2ncns2)c(F)c1)CC(CCN)C1CC1 (single isomer, unassigned)	NaV1.5 (Homo sapiens, UniProt Q14524)	> 33800 nM
C[C@@H](N)[C@@H](CC(C)(C)CCN)C1CCc2cc(S(=O)(=O)Nc3ncns3)c(F)cc2O1 (single isomer, unassigned)	NaV1.5 (Homo sapiens, UniProt Q14524)	> 33800 nM
C[C@@H](N)C(CNc1cc(F)c(S(=O)(=O)Nc2ncns2)cc1F)C[C@@]1(C)CCC[C@@H]1CN (single isomer, unassigned)	NaV1.5 (Homo sapiens, UniProt Q14524)	> 33800 nM
Cc1cc(NC[C@H](CC(C)(C)CCN)[C@@H](C)N)c(Cl)cc1S(=O)(=O)Nc1ncns1	NaV1.5 (Homo sapiens, UniProt Q14524)	20700 nM

----------
- target_entity: human Nav1.7 channels stably expressed in HEK 293 cells (Homo sapiens, UniProt Q15858)
- Construct: expressed in transfected cells; host or cells: HEK 293
- test: Qube automated patch-clamp assay, inhibition of sodium current
- Assay type: cell-based
- measurement_conditions: holding potential −75 mV; max concentration tested 33750 nM; read-out: NaV1.7 (nM); −75 mV
quantity: log10 of IC50 (log10 of the value in nM)

compound	target_entity	log10 of IC50
CC(C)[C@@H](N)[C@H](CNc1cc(F)c(S(=O)(=O)Nc2ncns2)cc1Cl)CC(C)(C)CCN [Example 27, bis(2,2,2-trifluoroacetate)]	human Nav1.7 channels stably expressed in HEK 293 cells (Homo sapiens, UniProt Q15858)	1.61
C[C@@H](N)[C@H](CNc1cc(F)c(S(=O)(=O)Nc2ncns2)cc1F)CC1(CCN)CCC1	human Nav1.7 channels stably expressed in HEK 293 cells (Homo sapiens, UniProt Q15858)	0.90
C[C@@H](N)[C@H](CNc1ccc(S(=O)(=O)Nc2ncns2)c(F)c1)CC(CCN)C1CC1 (single isomer, unassigned)	human Nav1.7 channels stably expressed in HEK 293 cells (Homo sapiens, UniProt Q15858)	1.49
Cc1csc(NS(=O)(=O)c2cc(Cl)c(NC[C@H](CC(C)(C)N)[C@@H](C)N)cc2F)n1	human Nav1.7 channels stably expressed in HEK 293 cells (Homo sapiens, UniProt Q15858)	2.12
C[C@@H](N)[C@H](CNc1cc(F)c(S(=O)(=O)Nc2ncns2)cc1Cl)C[C@@H]1C[C@@H]1CN (single isomer, unassigned)	human Nav1.7 channels stably expressed in HEK 293 cells (Homo sapiens, UniProt Q15858)	2.19
C[C@H]1NCCNCC(C)(C)C[C@H]1CNc1cc(F)c(S(=O)(=O)Nc2ncns2)cc1Cl	human Nav1.7 channels stably expressed in HEK 293 cells (Homo sapiens, UniProt Q15858)	2.07
C[C@@H](N)C(CNc1ncc(S(=O)(=O)Nc2ncc(F)s2)cc1Cl)CC1(CCN)CCC1 (single isomer, unassigned)	human Nav1.7 channels stably expressed in HEK 293 cells (Homo sapiens, UniProt Q15858)	1.26
C[C@@H](N)C(CNc1cc(F)c(S(=O)(=O)Nc2ncns2)cc1F)C[C@@]1(C)CCC[C@@H]1CN (single isomer, unassigned) [Example 97]	human Nav1.7 channels stably expressed in HEK 293 cells (Homo sapiens, UniProt Q15858)	0.85
C[C@@H](N)[C@H](CNc1cc(F)c(S(=O)(=O)Nc2ncns2)cc1F)CC(N)CC(F)(F)F (single isomer, unassigned)	human Nav1.7 channels stably expressed in HEK 293 cells (Homo sapiens, UniProt Q15858)	1.86
C[C@@H](N)[C@H](CNc1cc(F)c(S(=O)(=O)Nc2ncns2)cc1Cl)CC(N)C(F)(F)F (single isomer, unassigned) [Example 2]	human Nav1.7 channels stably expressed in HEK 293 cells (Homo sapiens, UniProt Q15858)	1.92
COc1cc(S(=O)(=O)Nc2ncns2)c(F)cc1NCC(CC1(CN)CCC1)[C@@H](C)N (stereo partly shown)	human Nav1.7 channels stably expressed in HEK 293 cells (Homo sapiens, UniProt Q15858)	1.36
Cc1cc(S(=O)(=O)Nc2ncc(F)s2)c(F)cc1NC[C@H](CC(C)(C)N)[C@@H](C)N	human Nav1.7 channels stably expressed in HEK 293 cells (Homo sapiens, UniProt Q15858)	1.23
Cc1cc(NC[C@H](CC(C)(C)CCN)[C@@H](C)N)c(C#N)cc1S(=O)(=O)Nc1ncns1	human Nav1.7 channels stably expressed in HEK 293 cells (Homo sapiens, UniProt Q15858)	1.57

----------
Consider the following compounds and their measured IC50 readings.
- target_entity: human Nav1.7 channels stably expressed in HEK 293 cells (Homo sapiens, UniProt Q15858)
- Construct: expressed in transfected cells; host or cells: HEK 293
- test: Qube automated patch-clamp assay, inhibition of sodium current
- Format: cell-based
- measurement_conditions: holding potential −75 mV; max concentration tested 33750 nM; read-out: NaV1.7 (nM); −75 mV
quantity: IC50 (nM)

compound	target_entity	quantity	value_reported
CC(C)NCC(CNc1cc(F)c(S(=O)(=O)Nc2ncns2)cc1Cl)[C@@H](C)N (single isomer, unassigned) [Example 36]	human Nav1.7 channels stably expressed in HEK 293 cells (Homo sapiens, UniProt Q15858)	IC50	82
CC(C)NCC(CNc1cc(F)c(S(=O)(=O)Nc2ncns2)cc1Cl)[C@@H](C)N (single isomer, unassigned) [Example 37]	human Nav1.7 channels stably expressed in HEK 293 cells (Homo sapiens, UniProt Q15858)	IC50	6760
C[C@@H](N)[C@H](CNc1cc(F)c(S(=O)(=O)Nc2cccc(F)n2)cc1Cl)CC1(N)CCC1	human Nav1.7 channels stably expressed in HEK 293 cells (Homo sapiens, UniProt Q15858)	IC50	14
CC(C)C(N)CC(CNc1cc(F)c(S(=O)(=O)Nc2ncns2)cc1Br)[C@@H](C)N (single isomer, unassigned) [Example 109]	human Nav1.7 channels stably expressed in HEK 293 cells (Homo sapiens, UniProt Q15858)	IC50	3

----------
- target_entity: human Nav1.6 channels stably expressed in HEK 293 cells (Homo sapiens)
- Construct: expressed in transfected cells; host or cells: HEK 293
- Sequence (Q9UQD0 whole entry): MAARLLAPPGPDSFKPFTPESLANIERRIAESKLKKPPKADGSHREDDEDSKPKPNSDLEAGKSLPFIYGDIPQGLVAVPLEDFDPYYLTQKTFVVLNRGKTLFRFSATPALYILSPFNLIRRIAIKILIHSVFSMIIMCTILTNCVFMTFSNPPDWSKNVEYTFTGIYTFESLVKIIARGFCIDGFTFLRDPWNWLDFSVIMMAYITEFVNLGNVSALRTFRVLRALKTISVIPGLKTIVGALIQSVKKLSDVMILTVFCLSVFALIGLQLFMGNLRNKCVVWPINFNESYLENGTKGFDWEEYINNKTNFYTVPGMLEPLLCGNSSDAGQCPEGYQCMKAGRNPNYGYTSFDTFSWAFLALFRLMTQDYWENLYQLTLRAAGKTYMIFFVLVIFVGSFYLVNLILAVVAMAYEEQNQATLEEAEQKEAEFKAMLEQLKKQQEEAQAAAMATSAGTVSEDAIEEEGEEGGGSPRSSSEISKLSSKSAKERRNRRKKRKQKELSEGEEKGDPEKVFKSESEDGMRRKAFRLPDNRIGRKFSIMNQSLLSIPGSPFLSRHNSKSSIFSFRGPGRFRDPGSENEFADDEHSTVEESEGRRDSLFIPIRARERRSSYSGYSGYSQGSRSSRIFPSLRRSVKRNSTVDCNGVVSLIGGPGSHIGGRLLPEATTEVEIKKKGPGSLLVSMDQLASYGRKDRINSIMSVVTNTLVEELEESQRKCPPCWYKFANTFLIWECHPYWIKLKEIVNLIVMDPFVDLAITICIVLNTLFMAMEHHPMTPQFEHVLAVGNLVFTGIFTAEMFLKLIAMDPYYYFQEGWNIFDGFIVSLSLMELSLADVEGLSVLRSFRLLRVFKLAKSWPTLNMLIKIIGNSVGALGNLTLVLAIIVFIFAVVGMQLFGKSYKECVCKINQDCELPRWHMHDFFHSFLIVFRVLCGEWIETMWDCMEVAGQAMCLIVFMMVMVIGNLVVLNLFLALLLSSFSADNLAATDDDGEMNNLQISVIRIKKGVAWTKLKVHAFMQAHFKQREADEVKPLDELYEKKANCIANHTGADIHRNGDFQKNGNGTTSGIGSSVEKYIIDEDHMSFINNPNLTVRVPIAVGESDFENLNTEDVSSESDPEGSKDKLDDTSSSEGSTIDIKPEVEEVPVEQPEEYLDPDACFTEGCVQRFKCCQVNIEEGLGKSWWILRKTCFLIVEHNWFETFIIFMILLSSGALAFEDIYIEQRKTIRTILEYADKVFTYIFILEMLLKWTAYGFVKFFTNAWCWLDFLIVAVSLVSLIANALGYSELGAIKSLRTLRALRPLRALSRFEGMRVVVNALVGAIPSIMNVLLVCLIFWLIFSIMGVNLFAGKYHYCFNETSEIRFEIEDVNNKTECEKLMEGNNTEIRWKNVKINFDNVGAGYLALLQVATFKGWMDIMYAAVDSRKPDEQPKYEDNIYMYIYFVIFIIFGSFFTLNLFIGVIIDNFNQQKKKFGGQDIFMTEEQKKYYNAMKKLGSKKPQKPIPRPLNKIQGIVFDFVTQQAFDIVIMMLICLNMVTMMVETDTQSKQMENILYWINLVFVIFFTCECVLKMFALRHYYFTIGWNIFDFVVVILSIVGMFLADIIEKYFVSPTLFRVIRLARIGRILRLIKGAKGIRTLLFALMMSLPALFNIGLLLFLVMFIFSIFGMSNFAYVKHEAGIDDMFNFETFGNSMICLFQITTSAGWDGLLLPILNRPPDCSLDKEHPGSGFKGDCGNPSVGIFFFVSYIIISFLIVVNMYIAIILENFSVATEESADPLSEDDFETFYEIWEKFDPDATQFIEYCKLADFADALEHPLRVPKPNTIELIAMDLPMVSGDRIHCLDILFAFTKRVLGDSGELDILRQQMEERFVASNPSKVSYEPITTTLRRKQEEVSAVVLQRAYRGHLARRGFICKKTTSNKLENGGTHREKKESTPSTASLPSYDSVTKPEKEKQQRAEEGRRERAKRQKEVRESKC
- test: Qube automated patch-clamp assay, inhibition of sodium current
- Format: cell-based
- measurement_conditions: holding potential −65 mV; max concentration tested 33750 nM

compound	target_entity	IC50
CCC(CN)CC(CNc1cc(F)c(S(=O)(=O)Nc2ncns2)cc1F)[C@@H](C)N (single isomer, unassigned) [Example 93]	human Nav1.6 channels stably expressed in HEK 293 cells (Homo sapiens)	> 33800 nM
CC[C@@H](N)C(CNc1cc(F)c(S(=O)(=O)Nc2ncns2)c(F)c1F)CC1(CCN)CCC1 (single isomer, unassigned) [Example 22]	human Nav1.6 channels stably expressed in HEK 293 cells (Homo sapiens)	12100 nM
C[C@@H](N)[C@H](CNc1cc(F)c(S(=O)(=O)Nc2ncns2)cc1CO)CC(N)C1CC1 (stereo partly shown) [Example 80]	human Nav1.6 channels stably expressed in HEK 293 cells (Homo sapiens)	> 33800 nM
C[C@@H](N)C(CNc1cc(F)c(S(=O)(=O)Nc2ncns2)cc1F)CC1CCCCC1CCN (single isomer, unassigned) [Example 62]	human Nav1.6 channels stably expressed in HEK 293 cells (Homo sapiens)	> 33800 nM
C[C@@H](N)C(CNc1ncc(S(=O)(=O)Nc2ncc(F)s2)cc1Cl)CC1(CCN)CCC1 (single isomer, unassigned) [Example 8]	human Nav1.6 channels stably expressed in HEK 293 cells (Homo sapiens)	> 33800 nM
C[C@@H](N)[C@H](CNc1ncc(S(=O)(=O)Nc2ncns2)cc1C#N)CC(C)(C)CCN [Example 31]	human Nav1.6 channels stably expressed in HEK 293 cells (Homo sapiens)	> 33800 nM
C[C@@H](N)C(CNc1cc(F)c(S(=O)(=O)Nc2ncns2)cc1F)CC1CC2(CC2)CN1 (single isomer, unassigned) [Example 72]	human Nav1.6 channels stably expressed in HEK 293 cells (Homo sapiens)	> 33800 nM
C[C@@H](N)C(CNc1ccc(S(=O)(=O)Nc2ncns2)cc1F)CC1(N)CCC1 (single isomer, unassigned) [Example 89]	human Nav1.6 channels stably expressed in HEK 293 cells (Homo sapiens)	> 33800 nM
C[C@@H](N)C(CNc1cc(F)c(S(=O)(=O)Nc2ncns2)cc1F)CC1CCCCC1CCN (single isomer, unassigned) [Example 60]	human Nav1.6 channels stably expressed in HEK 293 cells (Homo sapiens)	> 33800 nM
C[C@@H](N)[C@H](CNc1ncc(S(=O)(=O)Nc2ncns2)cc1C(F)(F)F)CC(C)(C)CCN [Example 13]	human Nav1.6 channels stably expressed in HEK 293 cells (Homo sapiens)	> 33800 nM
C[C@@H](N)C(CNc1cc(F)c(S(=O)(=O)Nc2ncns2)cc1F)CC1CCCCC1CCN (single isomer, unassigned) [Example 66]	human Nav1.6 channels stably expressed in HEK 293 cells (Homo sapiens)	> 33800 nM
C[C@@H](N)C(CNc1cc(F)c(S(=O)(=O)Nc2ncns2)cc1F)CC1CC(C)(C)CN1 (single isomer, unassigned) [Example 17]	human Nav1.6 channels stably expressed in HEK 293 cells (Homo sapiens)	> 33800 nM
C[C@@H](N)[C@H](CNc1cc(F)c(S(=O)(=O)Nc2cccc(F)n2)cc1Cl)CC1(N)CCC1 [Example 105]	human Nav1.6 channels stably expressed in HEK 293 cells (Homo sapiens)	8340 nM
